Test system: 5-helix bundle (5HB) protein mimicking hRSV fusion protein F
assay-details: 5HB-based competitive fluorescence polarization (FP) binding assay
Set-up: species or system human respiratory syncytial virus (hRSV)
condition-details: 200 µM peptide; inhibition of Fl-C35 tracer (5 nM) binding to 5HB (20 nM); FP buffer 20 mM PBS pH 7.4, 500 mM NaCl, 0.01% Tween-20, 0.05 mg/ml bovine gamma globulin; 1 h + 30 min at room temperature; ex 485/em 530 nm
Non-standard residues stand in square brackets, D forms with d. No end group written: not given here. Sar = CNCC(=O)O
Could you please report measured % Inhibition at 200 µM for the items listed next?
Provide the reading as a plain figure in %.

// query I would be grateful if you could share the reported % Inhibition at 200 µM for ISAVNEKINQSLAFIRKSDE [Peptide A3, alanine-substituted C20 peptide] .
// result 27.27

// query # repeat for ISQVNEKI[Sar]QSLAFIRKSDE [Sar9, sarcosine-substituted C20 peptide]
// result 13.89

// query # repeat for ISQVNEKINQSLAFIRKSAE [Peptide A19, alanine-substituted C20 peptide]
// result 31.81

// query # repeat for ISQVPEKINQSLAFIRKSDE [Peptide P5, proline-substituted C20 peptide]
// result 34.26

// query # repeat for ISQVNEKINQSL[Sar]FIRKSDE [Sar13, sarcosine-substituted C20 peptide]
// result 4.63

// query # repeat for ISQVNEKINQSLAFIRKSDA [Peptide A20, alanine-substituted C20 peptide]
// result 29.09

// query # repeat for ISQVNEKINQSLAFIAKSDE [Peptide A16, alanine-substituted C20 peptide]
// result 53.63

// query # repeat for [Sar]SQVNEKINQSLAFIRKSDE [Sar1, sarcosine-substituted C20 peptide]
// result 15.74

---

Tested on: 5-helix bundle (5HB) protein mimicking hRSV fusion protein F
assay-details: 5HB-based competitive fluorescence polarization (FP) binding assay
Design: species or system human respiratory syncytial virus (hRSV)
condition-details: 200 µM peptide; inhibition of Fl-C35 tracer (5 nM) binding to 5HB (20 nM); FP buffer 20 mM PBS pH 7.4, 500 mM NaCl, 0.01% Tween-20, 0.05 mg/ml bovine gamma globulin; 1 h + 30 min at room temperature; ex 485/em 530 nm
Non-standard residues stand in square brackets, D forms with d. No end group written: not given here. *: point of attachment. FITC = O=C1OC2(c3ccc(O)cc3Oc3cc(O)ccc32)c2ccc(NC(=S)*)cc21; Sar = CNCC(=O)O
Could you please report measured % Inhibition at 200 µM for the items listed next?
Provide the reading as a plain figure in %.

// query I would be grateful if you could share the reported % Inhibition at 200 µM for {FITC}-YDPLVFPSDEFDASISQVNEKINQSLAFIRKSDEL [Fl-C35, fluorescently labeled 35 amino acid-long peptide used as tracer, reference compound] .
// result 100

// query # repeat for IPQVNEKINQSLAFIRKSDE [Peptide P2, proline-substituted C20 peptide]
// result 23.15

// query # repeat for ISQVAEKINQSLAFIRKSDE [Peptide A5, alanine-substituted C20 peptide]
// result 25.90

// query # repeat for ISQVNEKINQPLAFIRKSDE [Peptide P11, proline-substituted C20 peptide]
// result 9.26

// query # repeat for ISQVNEKINQSPAFIRKSDE [Peptide P12, proline-substituted C20 peptide]
// result 22.22

// query # repeat for ISQVNEKINPSLAFIRKSDE [Peptide P10, proline-substituted C20 peptide]
// result 9.26

// query # repeat for ISQVNEKINQSLAFIRKSD[Sar] [Sar20, sarcosine-substituted C20 peptide]
// result 100.00
